glycan array binding signal (z-score) reference
- TARGET DESC: Neu5Gc(a2-8)Neu5Gc(a2-3)Gal(b1-4)GlcNAc(b1-3)Gal(b1-4)GlcNAc
- PROCEDURE DETAILS: glycan array binding signal (z-score within array); higher = stronger binding
- ASSAY SETUP: glycan notation: IUPAC condensed, linker removed
Only a selection was taken, and the strongest signals are over-represented in it overall.
ASSAY READOUT: glycan array binding signal (z-score)

• LFA (Limax flavus) (protein) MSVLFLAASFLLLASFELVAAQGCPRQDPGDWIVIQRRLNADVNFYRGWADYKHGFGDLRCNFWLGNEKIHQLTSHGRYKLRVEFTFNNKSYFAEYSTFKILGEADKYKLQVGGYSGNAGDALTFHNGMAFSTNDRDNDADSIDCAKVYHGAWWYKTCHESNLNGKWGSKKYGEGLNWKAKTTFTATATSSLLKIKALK = -0.237
• Gal 9 (Homo sapiens), O00182 (protein) MAFSGSQAPYLSPAVPFSGTIQGGLQDGLQITVNGTVLSSSGTRFAVNFQTGFSGNDIAFHFNPRFEDGGYVVCNTRQNGSWGPEERKTHMPFQKGMPFDLCFLVQSSDFKVMVNGILFVQYFHRVPFHRVDTISVNGSVQLSYISFQNPRTVPVQPAFSTVPFSQPVCFPPRPRGRRQKPPGVWPANPAPITQTVIHTVQSAPGQMFSTPAIPPMMYPHPAYPMPFITTILGGLYPSKSILLSGTVLPSAQRFHINLCSGNHIAFHLNPRFDENAVVRNTQIDNSWGSEERSLPRKMPFVRGQSFSVWILCEAHCLKVAVDGQHLFEYYHRLRNLPTINRLEVGGDIQLTHVQT = -0.282
